Tested system: BTK (Mus musculus)
Construct: from tissue; host or cells: mouse blood B cells / splenocytes (CD-1 or BALB/c)
Sequence (P35991 whole entry): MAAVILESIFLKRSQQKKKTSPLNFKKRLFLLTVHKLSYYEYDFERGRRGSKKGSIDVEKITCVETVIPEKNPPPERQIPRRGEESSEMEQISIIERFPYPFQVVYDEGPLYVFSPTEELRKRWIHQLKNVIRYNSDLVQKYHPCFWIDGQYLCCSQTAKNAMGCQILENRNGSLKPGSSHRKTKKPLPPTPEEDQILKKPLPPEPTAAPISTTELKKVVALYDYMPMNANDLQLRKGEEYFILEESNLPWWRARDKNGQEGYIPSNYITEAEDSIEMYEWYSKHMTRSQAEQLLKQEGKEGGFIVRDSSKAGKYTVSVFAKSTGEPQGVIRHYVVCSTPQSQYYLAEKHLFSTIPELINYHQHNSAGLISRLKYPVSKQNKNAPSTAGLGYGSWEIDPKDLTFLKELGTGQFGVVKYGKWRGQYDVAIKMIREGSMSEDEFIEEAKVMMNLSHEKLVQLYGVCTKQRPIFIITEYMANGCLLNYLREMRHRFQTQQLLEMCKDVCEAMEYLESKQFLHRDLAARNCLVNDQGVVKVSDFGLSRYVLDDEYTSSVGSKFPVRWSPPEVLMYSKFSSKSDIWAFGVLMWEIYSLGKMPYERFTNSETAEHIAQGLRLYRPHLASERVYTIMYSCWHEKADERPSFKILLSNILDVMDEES
Assay text: In vivo degradation of BTK in mouse PD experiments with oral dosing
Run parameters: oral dose 3 mg/kg, 24 h, splenocytes, flow cytometry
Endpoint label: % BTK Remaining (%)
Number only, in %; omit the unit.

Problem: Data request, read-out % BTK Remaining, for CN1CCN([C@@H]2CCCN(c3cnc(C(N)=O)c(Nc4ccc(N5CCC6(CC5)CCN(c5ccc7c(c5)C(=O)N(C5CCC(=O)NC5=O)C7=O)CC6)cc4)n3)C2)C1=O (stereo partly shown)
Result: 72

Problem: Return reported % BTK Remaining; argument: CN1CCN([C@@H]2CCCN(c3cnc(C(N)=O)c(Nc4ccc(C5CCN(CC6CCN(c7ccc(C(=O)N[C@@H]8CCC(=O)NC8=O)nc7)CC6)CC5)cc4)n3)C2)C1=O
Result: 95

Problem: Quick check: % BTK Remaining of CN1CCN([C@H]2CCCN(c3cnc(C(N)=O)c(Nc4ccc(N5CCC6(CCN(c7ccc8c(c7)C(=O)N(C7CCC(=O)NC7=O)C8=O)CC6)CC5)nc4)n3)C2)C1=O (stereo partly shown) ?
Result: 111

Problem: Give its % BTK Remaining value. Item: CN1CCN([C@@H]2CCCN(c3cnc(C(N)=O)c(Nc4ccc(C5CCN(CC6CCN(c7ccc(C(=O)N[C@H]8CCC(=O)NC8=O)nc7)CC6)CC5)cc4)n3)C2)C1=O
Result: 39

* * *

Assay text: Compound plasma exposure in mouse (CD-1), daily oral dosing, same table as the cyno DRF study
Format: in vivo
Run parameters: CD-1, mouse, 300 mg/kg, 300 mg/kg PO, 1 day of dosing
Recorded Cmax by entry

// below: answered molecules
CN1CCN([C@H]2CCCN(c3cnc(C(N)=O)c(Nc4ccc(C5CCN(CC6CCN(c7ccc(C(=O)NC8CCC(=O)NC8=O)nc7)CC6)CC5)cc4)n3)C2)C1=O (stereo partly drawn) : 5100 nM
CN1CCN([C@@H]2CCCN(c3cnc(C(N)=O)c(Nc4ccc(C5CCN(C[C@H]6CCN(c7ccc8c(c7)C(=O)N(C7CCC(=O)NC7=O)C8=O)C6)CC5)cc4)n3)C2)C1=O (stereo partly drawn) : 740 nM

Now let's try a different one.
Problem: Requested field: Cmax. Item: NC(=O)c1ncc(N2CCCCC2)nc1Nc1ccc(C2CCN(C[C@@H]3CCN(c4ccc5c(c4)C(=O)N(C4CCC(=O)NC4=O)C5=O)C3)CC2)cc1 (stereo partly drawn)
Result: 2610 nM

* * *

Collected clearance values appear next to each entry.
Assay text: PK data for BTK CTMs (in vivo plasma concentrations)
Run parameters: Mouse Balb/c, 1 mg/kg IV
Quick reminder: number only, in mL/min/kg, skip the unit.

Study these solved cases before continuing.
NC(=O)c1ncc(N2CCCCC2)nc1Nc1ccc(C2CCN(C[C@@H]3CCN(c4ccc5c(c4)C(=O)N(C4CCC(=O)NC4=O)C5=O)C3)CC2)cc1 (stereo partly drawn) : 5.2
CN1CCN([C@@H]2CCCN(c3cnc(C(N)=O)c(Nc4ccc(C5CN(CC6CCN(c7ccc8c(=O)n(C9CCC(=O)NC9=O)ccc8c7)CC6)C5)cc4)n3)C2)C1=O (stereo partly drawn) : 31.4
CN1CCN([C@@H]2CCCN(c3cnc(C(N)=O)c(Nc4ccc(C5CCN(C[C@H]6CCN(c7ccc8c(c7)C(=O)N(C7CCC(=O)NC7=O)C8=O)C6)CC5)cc4)n3)C2)C1=O (stereo partly drawn) : 5.1

Problem: So what's the measured clearance for this one? CN1CCN([C@@H]2CCCN(c3cnc(C(N)=O)c(Nc4ccc(C5CCN(CC6CCN(c7ccc(-c8nn(C9CCC(=O)NC9=O)c(=O)n8C)cc7)CC6)CC5)cc4)n3)C2)C1=O (stereo partly drawn)
Result: 6.6

Problem: Name the reported clearance value associated with the compound NC(=O)c1ncc(N2CCC[C@@H](N3CCOC3=O)C2)nc1Nc1ccc(C2CCN(C[C@H]3CCN(c4ccc5c(c4)C(=O)N(C4CCC(=O)NC4=O)C5=O)C3)CC2)cc1 (stereo partly drawn)
Result: 33.8

Problem: Find the recorded clearance belonging to CN1CCN([C@@H]2CCCN(c3cnc(C(N)=O)c(Nc4ccc(N5CCC6(CC5)CCN(c5ccc7c(c5)C(=O)N(C5CCC(=O)NC5=O)C7=O)CC6)cc4)n3)C2)C1=O (stereo partly drawn) and report it.
Result: 2.4

Problem: Data request, read-out clearance, for CN1CCN([C@@H]2CCCN(c3cnc(C(N)=O)c(Nc4ccc(C5CCN(C6CN(Cc7ccc8c(c7)CN(C7CCC(=O)NC7=O)C8=O)C6)CC5)cc4)n3)C2)C1=O (stereo partly drawn)
Result: 35

Problem: Reported clearance for CN1CCN([C@H]2CCCN(c3cnc(C(N)=O)c(Nc4ccc(C5CCN(CC6CCN(c7ccc(C(=O)NC8CCC(=O)NC8=O)nc7)CC6)CC5)cc4)n3)C2)C1=O (stereo partly drawn) : what is it?
Result: 6

Problem: Which value of clearance has been reported for CN1CCN([C@@H]2CCCN(c3cnc(C(N)=O)c(Nc4ccc(C5CN(C6CCN(c7ccc8c(c7)C(=O)N(C7CCC(=O)NC7=O)C8=O)CC6)C5)cc4)n3)C2)C1=O (stereo partly drawn) in the records?
Result: 12

Problem: Query (compound): CN1CCN([C@H]2CCCN(c3cnc(C(N)=O)c(Nc4cnn(C5CCN(CC6CCN(c7ccc8c(c7)C(=O)N(C7CCC(=O)NC7=O)C8=O)CC6)CC5)c4)n3)C2)C1=O (stereo partly drawn) ; field requested: clearance
Result: 68.3

Problem: Quick one: clearance for CN1CCN([C@@H]2CCCN(c3cnc(C(N)=O)c(Nc4ccc(C5CCN(CC6CCN(c7ccc8c(=O)n(C9CCC(=O)NC9=O)ccc8c7)CC6)CC5)cc4)n3)C2)C1=O (stereo partly drawn) ?
Result: 5.1

Problem: Looking for the measured clearance of CN1CCN([C@@H]2CCCN(c3cnc(C(N)=O)c(Nc4ccc(C5CCN(C6CN(c7ccc8c(c7)C(=O)N(C7CCC(=O)NC7=O)C8=O)C6)CC5)cc4)n3)C2)C1=O (stereo partly drawn) , can you help?
Result: 7.5

* * *

The entries below are paired with their reported Cmax.
Assay text: Compound plasma exposure in cyno DRF study
Format: in vivo
Run parameters: cynomolgus monkey, po, 100 mg/kg, 100 mg/kg PO, 14 days of dosing
Give the quantity in nM, number only.

Take a look at these entries with their results.
CN1CCN([C@H]2CCCN(c3cnc(C(N)=O)c(Nc4ccc(C5CCN(CC6CCN(c7ccc(C(=O)NC8CCC(=O)NC8=O)nc7)CC6)CC5)cc4)n3)C2)C1=O (stereo partly drawn) : 177
CN1CCN([C@@H]2CCCN(c3cnc(C(N)=O)c(Nc4ccc(C5CCN(C[C@H]6CCN(c7ccc8c(c7)C(=O)N(C7CCC(=O)NC7=O)C8=O)C6)CC5)cc4)n3)C2)C1=O (stereo partly drawn) : 94.2

// moving on: another record for Cmax
Problem: Can you share its Cmax? I mean this compound: NC(=O)c1ncc(N2CCCCC2)nc1Nc1ccc(C2CCN(C[C@@H]3CCN(c4ccc5c(c4)C(=O)N(C4CCC(=O)NC4=O)C5=O)C3)CC2)cc1 (stereo partly drawn)
Result: 159

* * *

Assay text: Compound plasma exposure in mouse (CD-1), daily oral dosing, same table as the cyno DRF study
Assay type: in vivo
Run parameters: CD-1, mouse, 300 mg/kg, 300 mg/kg PO, 14 days of dosing
Endpoint label: AUC (µM·h)
Express the result in µM·h but write the number alone.

Take a look at these entries with their results.
CN1CCN([C@H]2CCCN(c3cnc(C(N)=O)c(Nc4ccc(C5CCN(CC6CCN(c7ccc(C(=O)NC8CCC(=O)NC8=O)nc7)CC6)CC5)cc4)n3)C2)C1=O (stereo partly drawn) [Compound 130] : 72.2
CN1CCN([C@@H]2CCCN(c3cnc(C(N)=O)c(Nc4ccc(C5CCN(C[C@H]6CCN(c7ccc8c(c7)C(=O)N(C7CCC(=O)NC7=O)C8=O)C6)CC5)cc4)n3)C2)C1=O (stereo partly drawn) [Compound 44] : 12.8

We next turn to a different compound, shown below.
Problem: Look up AUC for this compound: NC(=O)c1ncc(N2CCCCC2)nc1Nc1ccc(C2CCN(C[C@@H]3CCN(c4ccc5c(c4)C(=O)N(C4CCC(=O)NC4=O)C5=O)C3)CC2)cc1 (stereo partly drawn) [Compound 149]
Result: 64.2

* * *

Measured % BTK Remaining by item
Tested system: BTK (Mus musculus)
Construct: from tissue; host or cells: mouse blood B cells / splenocytes (CD-1 or BALB/c)
Assay text: In vivo degradation of BTK in mouse PD experiments with oral dosing
Run parameters: oral dose 1 mg/kg, 6 h, splenocytes, HTRF
Give the number; % is assumed, so skip it.

CN1CCN([C@@H]2CCCN(c3cnc(C(N)=O)c(Nc4ccc(N5CCN(C[C@H]6CCN(c7ccc8c(c7)C(=O)N(C7CCC(=O)NC7=O)C8=O)C6)CC5)nc4)n3)C2)C1=O (stereo partly drawn) [Compound 113] : 70
CN1CCN([C@@H]2CCCN(c3cnc(C(N)=O)c(Nc4ccc(C5CCN(C[C@H]6CCN(c7ccc8c(c7)C(=O)N(C7CCC(=O)NC7=O)C8=O)C6)CC5)cc4)n3)C2)C1=O (stereo partly drawn) [Compound 44] : 58
CN1CCN([C@@H]2CCCN(c3cnc(C(N)=O)c(Nc4ccc(N5CCN(CCC6CCN(c7ccc8c(c7)C(=O)N(C7CCC(=O)NC7=O)C8=O)CC6)CC5)cc4)n3)C2)C1=O (stereo partly drawn) [Compound 40] : 82
CN1CCN([C@@H]2CCCN(c3cnc(C(N)=O)c(Nc4ccc(C5CCN(C[C@@H]6CCCN(c7ccc8c(c7)C(=O)N(C7CCC(=O)NC7=O)C8=O)C6)CC5)cc4)n3)C2)C1=O (stereo partly drawn) [Compound 32] : 93
CN1CCN([C@@H]2CCCN(c3cnc(C(N)=O)c(Nc4ccc(C5CN(C[C@H]6CCN(c7ccc8c(c7)C(=O)N(C7CCC(=O)NC7=O)C8=O)C6)C5)cc4)n3)C2)C1=O (stereo partly drawn) [Compound 35] : 74
CN1CCN([C@@H]2CCCN(c3cnc(C(N)=O)c(Nc4ccc(N5CC6(C5)CN(c5ccc7c(c5)C(=O)N(C5CCC(=O)NC5=O)C7=O)C6)cc4)n3)C2)C1=O (stereo partly drawn) [Compound 34] : 75
CN1CCN([C@H]2CCCN(c3cnc(C(N)=O)c(Nc4ccc(N5CC6CN(c7ccc8c(c7)C(=O)N(C7CCC(=O)NC7=O)C8=O)CC6C5)cc4)n3)C2)C1=O (stereo partly drawn) [Compound 79] : 102
CS(=O)(=O)c1ccc(Nc2nc(N3CCC[C@@H](NC(=O)OCC4CCN(c5ccc6c(c5)C(=O)N([C@H]5CCC(=O)NC5=O)C6=O)CC4)C3)cnc2C(N)=O)cc1 [Compound 218] : 97

Problem: Find the recorded % BTK Remaining belonging to CN1CCN([C@@H]2CCCN(c3cnc(C(N)=O)c(Nc4ccc(N5CCC6CCN(c7cccc8c7C(=O)N(C7CCC(=O)NC7=O)C8=O)CC6C5)cc4)n3)C2)C1=O (stereo partly drawn) [Compound 105] and report it.
Result: 85

Problem: Field request: % BTK Remaining | item: CN1CCN([C@@H]2CCCN(c3cnc(C(N)=O)c(Nc4ccc(N5CC6CN(Cc7ccc8c(c7)C(=O)N(C7CCC(=O)NC7=O)C8=O)CC6C5)cc4)n3)C2)C1=O (stereo partly drawn) [Compound 76]
Result: 100

Problem: Quick one: % BTK Remaining for CN1CCN([C@@H]2CCCN(c3cnc(C(N)=O)c(Nc4ccc(C5CCN(C[C@@H]6[C@H]7CN(c8ccc9c(c8)C(=O)N(C8CCC(=O)NC8=O)C9=O)C[C@@H]67)CC5)cc4)n3)C2)C1=O (stereo partly drawn) [Compound 39] ?
Result: 79

Problem: Given the entry CN1CCN([C@H]2CCCN(c3cnc(C(N)=O)c(Nc4ccc(N5CCC6(CCCN(Cc7ccc8c(c7)C(=O)N(C7CCC(=O)NC7=O)C8=O)C6)CC5)cc4)n3)C2)C1=O (stereo partly drawn) [Compound 108] , report its measured % BTK Remaining.
Result: 116
